melting point reference

Solved cases (2 shown):
1) COc1ccc(/C=C2\SC(=S)NC2=O)cc1C#CC1C2CC3CC(C2)CC1C3 (stereo not drawn)    266 to 267 °C
2) COc1ccc2c([nH]c3c(C)nccc32)c1C#CC1CCCCC1 [Compound 10, 8-[2-(cyclohexyl)ethynyl]harmine]    198 to 199 °C

Ask: Sample COc1ccc(/C=C2\SC(=S)NC2=O)cc1-c1cccc(C)c1 — what was its melting point?
Reply: 204 to 205 °C

----------
quantity_measured: melting point

1. COc1ccc(/C=C2\SC(=S)NC2=O)cc1-c1cc(C)cc(C)c1    238 to 239 °C
2. Fc1ccc(N2CCN(c3ccccc3)CC2)c(NC(=S)c2ccncc2)c1    183 to 186 °C
3. COc1ccc2c([nH]c3c(C)nccc32)c1C#C[Si](C)(C)C [Compound 9, 8-[2-(trimethylsilyl)ethynyl]harmine]    185 to 186 °C
4. COc1ccc(/C=C2\SC(=S)NC2=O)cc1C#CC1CCCCC1    185 to 186 °C
5. COc1ccc(/C=C2\SC(=S)NC2=O)cc1-c1cccc(C(F)(F)F)c1    209 to 210 °C

Ask: Sample COc1ccc(/C=C2\SC(=S)NC2=O)cc1-c1cc(C(F)(F)F)cc(C(F)(F)F)c1 — what was its melting point?
Reply: 244 to 245 °C
